B1: C10orf62 (parent)
chain: GHSHHSHHGHPSHQSHSLPNRRH

Variants of: B1
Test: protein stability index of a GFP-peptide fusion (GPS, HEK-293T) (PSI 1-6); higher = more stable;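 also: lentivirally expressed fusions sorted by FACS into six bins by GFP to DsRed ratio, PSI derived from sequencing read proportions per bin multiplied by bin number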
Settings: c terminus: native
In this section, each of the variants is paired with its reported protein stability index.
Answer with a number only.

Input `H7T` . Output protein stability index: 2.66

Input `R21Q` . Output protein stability index: 2.38

Input `H5F` . Output protein stability index: 3.95

Input `G1Y` . Output protein stability index: 2.42

Input `S6N` . Output protein stability index: 3.28

New cases:
Input `H2S` . Output protein stability index: 3.15

Input `R22A` . Output protein stability index: 3.28

Input `H16E` . Output protein stability index: 1.78

Input `H8D` . Output protein stability index: 1.96

Input `S6K` . Output protein stability index: 1.55

Input `H8N` . Output protein stability index: 4.02

Input `H10Q` . Output protein stability index: 3.81
